Exercise: for every item that follows, state its recorded binding affinity ratio (IC50 of standard peptide / IC50 of test peptide).
- target-or-test-system: HLA-B*5101 (human)
- protocol-details: competition with 125I-labelled standard peptide for purified HLA, gel filtration

>>> recorded_result("DPTRRPYKL (modifications not checked) [HPV18 E6 peptide … (position 6, 9 amino acids)]")
0.0001
>>> recorded_result("KPLNPAEKL (modifications not checked) [HPV18 E6 peptide … (position 110, 9 amino acids)]")
0.0001
>>> recorded_result("NPAEKLRHL (modifications not checked) [HPV18 E6 peptide … (position 113, 9 amino acids)]")
0.0001
>>> recorded_result("GPKATLQDIV (modifications not checked) [HPV18 E7 peptide … (position 3, 10 amino acids)]")
0.0001
>>> recorded_result("IPHAACHKCI (modifications not checked) [HPV18 E6 peptide … (position 60, 10 amino acids)]")
0.0046

Hey, can you go through the list below and give me binding affinity ratio (IC50 of standard peptide / IC50 of test peptide) for every item?
1. EPQRHTMLCM (modifications not checked) [HPV18 E7 peptide … (position 55, 10 amino acids)]
2. EPQNEIPVDL (modifications not checked) [HPV18 E7 peptide … (position 16, 10 amino acids)]
3. GPKATLQDI (modifications not checked) [HPV18 E7 peptide … (position 3, 9 amino acids)]

Response given:
0.0003
0.0001
0.0001

Data credit: patent US7026443
